Biological target: GST-Bcl-2 (Homo sapiens, UniProt P10415)
Sequence (P10415 whole entry): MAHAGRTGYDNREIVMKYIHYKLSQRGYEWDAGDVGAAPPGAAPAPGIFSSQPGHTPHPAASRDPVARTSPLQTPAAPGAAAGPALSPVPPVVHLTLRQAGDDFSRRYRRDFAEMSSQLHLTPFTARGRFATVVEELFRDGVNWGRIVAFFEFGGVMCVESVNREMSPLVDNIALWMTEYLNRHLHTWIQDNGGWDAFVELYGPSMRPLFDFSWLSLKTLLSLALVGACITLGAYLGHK
Test: TR-FRET binding assay, GST-Bcl-2 with F-Bak peptide probe
Conditions: TR-FRET; Bcl-XL Ki divided by Bcl-2 Ki
ENDPOINT: Binding selectivity ratio (Bcl-XL Ki/Bcl-2 Ki)
Give a plain numeric answer without units written out.

# SMILES_CODE, ENDPOINT_VALUE
data = [
    ("CC1(C)CCC(CN2CCN(c3ccc(C(=O)NS(=O)(=O)c4ccc(NCC5CCC(F)(F)CC5)c([N+](=O)[O-])c4)c(Oc4cccc5[nH]cnc45)c3)CC2)=C(c2ccc(Cl)cc2)C1", 54.0),
    ("CC1(C)CC(c2ccc(Cl)cc2)=C(CN2CCN(c3ccc(C(=O)NS(=O)(=O)c4cnc(OCC5(F)CCOCC5)c(Cl)c4)c(Oc4cccc5[nH]ncc45)c3)CC2)CO1", 1472.4),
]

Prompt line: Reported Binding selectivity ratio (Bcl-XL Ki/Bcl-2 Ki) for GST-Bcl-2 (Homo sapiens, UniProt P10415), given CC[C@]1(O)CC[C@@H](COc2ncc(S(=O)(=O)NC(=O)c3ccc(N4CCN(CC5=C(c6ccc(Cl)cc6)CC(C)(C)CC5)CC4)cc3Oc3cccc4[nH]ncc34)cc2Cl)CC1 ?
Response line: 36.4

Prompt line: Field entry: CC1(C)CCC(CN2CCN(c3ccc(C(=O)NS(=O)(=O)c4cnc(NC5CCN(C6CC6)CC5)c(Cl)c4)c(Oc4cccc5[nH]cnc45)c3)CC2)=C(c2ccc(Cl)cc2)C1
Response line: 74.4
